Biological target: T1, human CD112R expressed on Jurkat cells (human, UniProt Q6DKI7 1-326)
T1 construct: whole, on cells; Used for both Jurkat-CD112R OE cells and wild type Jurkat cells; which cells is said under assay; also called PVRIG; Jurkat-CD112R OE
T1 sequence (looked up): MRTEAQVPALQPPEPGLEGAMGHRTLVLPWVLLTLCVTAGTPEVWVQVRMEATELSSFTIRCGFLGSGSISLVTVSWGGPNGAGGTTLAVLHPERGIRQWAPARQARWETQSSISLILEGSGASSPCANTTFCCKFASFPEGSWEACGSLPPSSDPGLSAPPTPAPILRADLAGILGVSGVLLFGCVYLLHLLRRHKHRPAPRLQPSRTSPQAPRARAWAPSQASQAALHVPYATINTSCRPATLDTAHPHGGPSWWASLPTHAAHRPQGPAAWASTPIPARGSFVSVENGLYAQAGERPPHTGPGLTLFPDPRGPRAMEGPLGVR
Test: flow cytometry, Jurkat cells over-expressing human CD112R, 0.63 ug/mL antibody
MEASURE NAME: gMFI (fold increase over isotype)

Query :: Given Antibody 38 (antibody, V domains shown, Purified as IgG; compared with an IgG1 isotype control and detected with anti-human IgG Fc; also called antibody clone number 38; clone 38) VH: EVQLLESGGGLVQPGGSLRLSCAASGFTFSGHLMSWVRQAPGKGLEWVSAISGSAGETYYADSVKGRFTISRDNSKNTLYLQMNSLRAEDTAVYYCARDAYYDDWSGWADWYFDLWGRGTLVTVSS VL: EIVLTQSPATLSLSPGERATLSCRASQSVSRYLAWYQQKPGQAPRLLIYDASNRATGIPARFSGSGSGTDFTLTISSLEPEDFAVYYCQQVSLLPPTFGGGTKVEIK , state its recorded gMFI (fold increase over isotype).
Result :: 51.7 fold increase over isotype

Where do the numbers come from? From patent US20250051449A1.
